Target: human GPR40 (Homo sapiens)
Experiment: Inositol phosphate accumulation assay in FFAR1 (GPR40) CHOK1 clone
Settings: GPR40 agonist activity; intracellular inositol phosphate release in CHOK1 cells stably expressing recombinant human GPR40; 1 h incubation at 37° C.
Description: The inositol phosphate accumulation assay was performed to characterise the GPR40 agonist activity of the compounds of the present invention. […] Full-length human GPR40 cDNA (Accession Number: NM_005303) was cloned into mammalian expression vector (pReceiver) and was stably transfected into (Chinese Hamster Ovary) CHOK1 cells using Amaxa technology. […] GPR40 receptor expression on cell surface was measured by flow cytometry. […]
measuredEndpoint: EC50

Please give EC50 for each item listed below.
1. O=C(O)CC1(c2ccc(OCc3cccc(-c4ccc(C(F)(F)F)cc4)c3)c(F)c2)COC1
2. CC1(C)CCC(C)(C)c2cc(COc3ccc(C4(CC(=O)O)COC4)cc3)ccc21
3. O=C(O)CC1(c2ccc(OCc3ccc(-c4ccccc4)cc3)c(F)c2)COC1
4. CS(=O)(=O)CCCOc1ccc(-c2cccc(COc3ccc(C4(CC(=O)O)COC4)cc3)c2)cc1C(F)(F)F
5. O=C(O)CC1(c2ccc(OCc3ccc(-c4ccccc4)cc3)cc2)COC1
6. O=C(O)CC1(c2ccc(OCc3cccc(-c4ccccc4)c3)cc2)COC1
7. Cc1cc(OCC2CCCO2)cc(C)c1-c1cccc(COc2ccc(C3(CC(=O)O)COC3)cc2)c1 (centres unmarked)
8. CS(=O)(=O)CCCOc1ccc(-c2cccc(COc3ccc(C4(CC(=O)O)COC4)cc3)c2)c(Cl)c1

### Response
["> 500 nM", "100 to 500 nM", "> 500 nM", "> 500 nM", "100 to 500 nM", "100 to 500 nM", "< 100 nM", "< 100 nM"]

###

Molecular target: human GPR40 (Homo sapiens, UniProt O14842)
Sequence (O14842 whole entry): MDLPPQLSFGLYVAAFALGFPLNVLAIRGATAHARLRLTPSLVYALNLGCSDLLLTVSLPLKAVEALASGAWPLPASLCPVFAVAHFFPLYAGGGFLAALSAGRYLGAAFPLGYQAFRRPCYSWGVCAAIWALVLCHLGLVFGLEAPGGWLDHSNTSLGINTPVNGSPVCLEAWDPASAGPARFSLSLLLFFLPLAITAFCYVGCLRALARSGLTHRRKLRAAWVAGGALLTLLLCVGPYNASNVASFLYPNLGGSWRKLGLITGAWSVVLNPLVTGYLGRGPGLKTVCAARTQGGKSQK
Assay: Inositol phosphate accumulation assay in FFAR1 (GPR40) CHOK1 clone
Details: GPR40 agonist activity; intracellular inositol phosphate release in CHOK1 cells stably expressing recombinant human GPR40; 1 h incubation at 37° C.
measuredEndpoint: EC50

molecule | studyTarget | EC50
Cc1cc(OCCCS(C)(=O)=O)ccc1-c1cccc(COc2ccc(C3(CC(=O)O)COC3)cc2)c1 | human GPR40 (Homo sapiens, UniProt O14842) | < 100 nM
CSc1ccc(-c2cccc(COc3ccc(C4(CC(=O)O)COC4)cc3)c2)cc1 | human GPR40 (Homo sapiens, UniProt O14842) | 100 to 500 nM
O=C(O)CC1(c2ccc(OCc3cccc(-c4ccc(OCC5CCS(=O)(=O)C5)cc4Cl)c3)cc2)COC1 (stereo not shown) | human GPR40 (Homo sapiens, UniProt O14842) | < 100 nM

Proceed to the following item.
### Prompt Bench note: what EC50 did O=C(O)CC1(c2ccc(OCc3cccc(-c4ccc(OCC5CCOCC5)cc4Cl)c3)cc2)COC1 show?
### Response < 100 nM

###

Target: human GPR40 (Homo sapiens)
Assay: Inositol phosphate accumulation assay in FFAR1 (GPR40) CHOK1 clone
Details: GPR40 agonist activity; intracellular inositol phosphate release in CHOK1 cells stably expressing recombinant human GPR40; 1 h incubation at 37° C.
measuredEndpoint: EC50

Worked examples, 3 molecules total:
molecule | EC50
Cc1cc(OC2CCS(=O)(=O)CC2)cc(C)c1-c1cccc(COc2ccc(C3(CC(=O)O)COC3)cc2)c1 | 100 to 500 nM
Cc1cc(OC[C@@H]2CCOC2)cc(C)c1-c1cccc(COc2ccc(C3(CC(=O)O)COC3)cc2)c1 | < 100 nM
Cc1cc(OCCCS(C)(=O)=O)cc(C)c1-c1cccc(COc2ccc(C3(CC(=O)O)COC3)cc2)c1 | < 100 nM

// each listed molecule needs a value for EC50
1. O=C(O)CC1(c2ccc(OCc3ccc(C(F)(F)F)c(F)c3)cc2)COC1
2. Cc1cc(OCC2CCS(=O)(=O)C2)cc(C)c1-c1cccc(COc2ccc(C3(CC(=O)O)COC3)cc2)c1 (centres unmarked)
3. COc1cc(COc2ccc(C3(CC(=O)O)COC3)cc2)ccc1C(F)(F)F
4. Cc1cc(OCCCS(C)(=O)=O)cc(C)c1-c1cccc(COc2ccc(C3(CC(=O)O)CN(S(C)(=O)=O)C3)cc2)c1
5. Cc1ccc(C(F)(F)F)cc1COc1ccc(C2(CC(=O)O)COC2)cc1

### Response
1. > 500 nM
2. < 100 nM
3. > 500 nM
4. > 500 nM
5. > 500 nM

###

Provide the reported EC50 of each item.
Molecular target: human GPR40 (Homo sapiens)
Experiment: Inositol phosphate accumulation assay in FFAR1 (GPR40) CHOK1 clone
Details: GPR40 agonist activity; intracellular inositol phosphate release in CHOK1 cells stably expressing recombinant human GPR40; 1 h incubation at 37° C.

Examples with their reported EC50 follow.
molecule | studyTarget | EC50
O=C(O)CC1(c2ccc(OCc3cccc(-c4ccc(OCC5CCS(=O)(=O)CC5)cc4Cl)c3)cc2)COC1 [Example 70] | human GPR40 (Homo sapiens) | < 100 nM
Cc1cc(OCC2CCOC2)cc(C)c1-c1cccc(COc2ccc(C3(CC(=O)O)COC3)cc2)c1 (stereo not shown) [Example 41] | human GPR40 (Homo sapiens) | < 100 nM
Cc1cc(OCC2CCOCC2)cc(C)c1-c1cccc(COc2ccc(C3(CC(=O)O)COC3)cc2)c1 [Example 43] | human GPR40 (Homo sapiens) | < 100 nM
O=C(O)CC1(c2ccc(OCc3cccc(-c4ccc(OCC5CCC5)cc4)c3)cc2)COC1 [Example 75] | human GPR40 (Homo sapiens) | > 500 nM
CCCCSc1ccc(-c2cccc(COc3ccc(C4(CC(=O)O)COC4)cc3)c2)cc1 [Example 85] | human GPR40 (Homo sapiens) | > 500 nM

For each of the items listed, what is its EC50?
1. Cc1cc(-c2cccc(COc3ccc(C4(CC(=O)O)COC4)cc3)c2)cc(C)c1OCCCS(C)(=O)=O [Example 79]
2. Cc1cc(OCC2CCS(=O)(=O)CC2)cc(C)c1-c1cccc(COc2ccc(C3(CC(=O)O)COC3)cc2)c1 [Example 45]
3. Cc1cc(OC2CCCC2)cc(C)c1-c1cccc(COc2ccc(C3(CC(=O)O)COC3)cc2)c1 [Example 59]
4. Cc1ccc(COc2ccc(C3(CC(=O)O)COC3)cc2)cc1C(F)(F)F [Example 28]
5. Cc1cc(OCC2(CO)COC2)cc(C)c1-c1cccc(COc2ccc(C3(CC(=O)O)COC3)cc2)c1 [Example 55]

### Response
1: 100 to 500 nM; 2: < 100 nM; 3: > 500 nM; 4: 100 to 500 nM; 5: < 100 nM

Give measured EC50 for every item shown.
1. O=C(O)CC1(c2ccc(OCc3cccc(-c4cnc(N5CCOCC5)nc4)c3)cc2)COC1 [Example 108]
2. O=C(O)CC1(c2ccc(OCc3cccc(F)c3)cc2)COC1 [Example 102]
3. O=C(O)CC1(c2ccc(OCc3cccc(-c4ccccc4)c3)c(F)c2)COC1 [Example 12]
4. COc1ccc(COc2ccc(C3(CC(=O)O)COC3)cc2)cc1C(F)(F)F [Example 22]
5. COc1cncc(-c2cccc(COc3ccc(C4(CC(=O)O)COC4)cc3)c2)c1 [Example 106]
6. N#Cc1ccccc1-c1ccc(COc2ccc(C3(CC(=O)O)COC3)cc2)cc1 [Example 6]

### Response
["< 100 nM", "> 500 nM", "> 500 nM", "> 500 nM", "> 500 nM", "100 to 500 nM"]
